- System: soybean plantlets
- protocol.text: High-throughput soybean screening for herbicide tolerance (plantlets)
- Format: in vivo, soybean (A3555)
- Set-up: key: 0 for poor tolerance, high damage, low green coloration; 1 for some tolerance, average damage, moderate green coloration; 2 for good tolerance, low damage, high green coloration
- condition.label: TP33; S-3100 spray five weeks post-transformation, scored day four
Listed here are molecules together with their documented coloration score.

molecule: H_N40: microbial HemG protoporphyrinogen oxidase, SEQ ID NO:6 (SEQ ID NO:15 lacking start methionine) (protein, listed as Pectobacterium carotovorum) MKALIVFSSRDGQTRAIASYIANTLKGTLECDVVNVLNANDIDLSQYDRVAIGASIRYGRFHPAVNQFIRKHLTSLQQLPSAFFSVNLTARKPEKRTIQTNAYTRKFLLNSPWQPDLCCVFAGALRYPRYRWFDRVMIQLIMRITGGETDSTKEIEYTDWQQVARFAQDFAQLAAKNPA
coloration score: 0

molecule: H_N20: microbial HemG protoporphyrinogen oxidase, SEQ ID NO:2 (SEQ ID NO:12 lacking start methionine) (protein, listed as Pantoea ananatis) MKALILFSTRDGQTQKIASAIADEIKGQQSCDVINIQDAKTLDWQQYDRVLIGASIRYGHFQPVVNEFVKHNLLALQQRVSGFFSVNLTARKPEKRSPETNAYTVKFLAQSPWQPDCCAVFAGALYYPRYRWFDRVMIQFIMRMTGGETDASKEVEYTDWQQVQRFARDFAQLPGKSY
coloration score: 1
